system: UACC-257 melanoma; test: NCI-60 one-dose screen, 48 h (100 = growth as untreated, 0 = no growth, -100 = all killed); conditions: 10 µM unless noted
Compounds without any hit were thinned out: in the full panel of roughly 83,000, 20% have a hit.
assay-metric: growth (%)
Numbers only, in %.

[[record]]
compound = "OC[C@@H](O)C(O[C@@H]1O[C@H](CO)[C@H](O)[C@H](O)[C@H]1O)[C@H](O)[C@@H](O)CO (stereo partly specified)"
assay_metric = "growth"
observed_value = 106

[[record]]
compound = "Cc1cn(C2CC(F)C(CO)O2)c(=O)[nH]c1=O (stereo unspecified)"
assay_metric = "growth"
observed_value = 91.8

[[record]]
compound = "CC(CN(C)C)CN1c2ccccc2CCc2ccccc21 (stereo unspecified)"
assay_metric = "growth"
observed_value = 105

[[record]]
compound = "O=C(Nc1ccc(-n2cc(-c3ccncc3)c(-c3ccc(O)c(Cl)c3)n2)cc1)c1ccc(Cl)c(C(F)(F)F)c1"
assay_metric = "growth"
observed_value = 60.9

[[record]]
compound = "O=c1c2ccccc2[nH]n1Cc1ccc2c(c1)OCO2"
assay_metric = "growth"
observed_value = 97

[[record]]
compound = "COc1cc(NC(C)CCCN2C(=O)c3ccccc3C2=O)c2ncccc2c1OC (stereo unspecified)"
assay_metric = "growth"
observed_value = 99.4

[[record]]
compound = "CCCCCCCCCCCCCCCCNc1ccccc1"
assay_metric = "growth"
observed_value = 82.3

[[record]]
compound = "Nc1nccc(=S)[nH]1"
assay_metric = "growth"
observed_value = 75.7


Hi! Can you tell me growth for each of these compounds?
1. CCN(CC)c1ccc(C2CC(c3cc(OC)c(OC)c(OC)c3)=NN2)cc1 (stereo unspecified)
2. O=C1OC(N(Cc2ccc(Cl)cc2)c2ccccc2)c2ccccc21 (stereo unspecified)

**Result**
1. 30.8
2. 105

Could I get growth for every one of these entries?
1. CC(C)CCC[C@@H](C)[C@H]1CC[C@H]2[C@@H]3CC=C4N(c5ccccc5)C(=O)CC[C@]4(C)[C@H]3CC[C@]12C
2. COc1cc(/C=C/C(=O)N2CCC=CC2=O)cc(OC)c1OC
3. C=CCn1c(SCC(=O)Nc2ccc(C(=O)/C=C/c3cc(OC)c(OC)c(OC)c3)cc2)nnc1-c1ccc(OC)cc1
4. CO[C@H]1/C=C/C=C/C=C/C[C@H](OC(=O)[C@@H](C)NC(=O)C2CCCCC2)[C@H](C)[C@@H](O)/C(C)=C\CCC2=CC(=O)C=C(NC(=O)C1)C2=O
5. O=C(Nc1ccc(-n2cc(-c3ccncc3)c(-c3ccc(O)c(Cl)c3)n2)cc1)Nc1ccc(Cl)c(C(F)(F)F)c1

**Result**
105
66.4
13.6
-18.9
47.5

###

system: SW-620 colon; assay: NCI-60 one-dose screen, 48 h (100 = growth as untreated, 0 = no growth, -100 = all killed); conditions: 10 µM unless noted
This is part of a sample that, as a whole, favours compounds with a hit. Of some 83,000 tested, about 20% had one in any assay.
Parameter threshold = 30%. Response is rule met when growth meets or exceeds it, else rule not met.

**Query** I'd appreciate it if you could say whether COc1cc(-c2nc(N)n(CC(=O)Nc3ccc(/C(C)=N\O)cc3)n2)cc(OC)c1OC has growth at least equal to 30%.
**Result** rule met

**Query** Please indicate if the recorded growth for COc1cccc(-c2nc3sccn3c2-c2ccnc(NCCNC(=O)Nc3cccc(C(F)(F)F)c3)n2)c1 meets or exceeds 30%.
**Result** rule met

**Query** Has CCCCOc1c(N)cccc1C(=O)OCCN(CC)CC a recorded growth greater than or equal to 30%?
**Result** rule met

**Query** Reported growth at or above 30%? c1ccc2nc(Cn3cc[n+](Cc4ccc5ccccc5n4)c3)ccc2c1
**Result** rule met

**Query** hey, is growth for this one >= 30%? O=[N+]([O-])c1cccc(C2c3ccccc3Oc3ccccc32)c1
**Result** rule met

**Query** Has CCCCCCCCCCCCCCCCCCNCc1ccc(Cl)cc1 a recorded growth greater than or equal to 30%?
**Result** rule not met

**Query** Record CCCCCCCCCCCC(=O)OCCNC(=O)C[n+]1ccccc1 ; criterion: growth no lower than 30%. Met?
**Result** rule met

**Query** Form field: growth at least 30%? Entry: COc1ccc(OC)c(NCC(=O)n2nc(/C=C\c3ccc(O)c(OC)c3)cc2/C=C\c2ccc(O)c(OC)c2)c1
**Result** rule not met

**Query** Dear colleague, could you confirm whether COc1ccccc1NC(=O)COc1ccc(/C=C2/Oc3cc4occc4c(OC)c3C2=O)cc1OC has growth at or above 30%?
**Result** rule met

**Query** In plain terms: is recorded growth at least 30% for C=C1C(=O)O[C@H]2[C@H]1CC/C(COC(=O)c1cccc3ccccc13)=C\CC[C@@]1(C)O[C@@H]21 ?
**Result** rule not met

**Query** For this compound, is measured growth 30% or higher? Nc1ncnc2c1c(C(F)(F)F)cn2[C@@H]1O[C@H](CO)[C@@H](O)[C@H]1O
**Result** rule not met

**Query** Quick check: does Nc1nc(Cl)cc(NCCCCNc2cc(Cl)nc(N)n2)n1 have growth greater than or equal to 30%?
**Result** rule met

###

tested on: UO-31 renal; test: NCI-60 one-dose screen, 48 h (100 = growth as untreated, 0 = no growth, -100 = all killed); details: 10 µM unless noted
The panel holds about 83,000 compounds, 20% with a hit somewhere; the sample as a whole holds those more often.
assay-metric: growth (%)
One number for each entry, in %.

Would you please look over these solved cases?
[[record]]
compound = "COc1cc(-c2nc3sc(C)cn3c2/C=C2\\C(=O)Nc3ccccc32)c(Br)c(OC)c1OC"
study_system = "UO-31 renal"
assay_metric = "growth"
observed_value = 24.8

[[record]]
compound = "COc1ccc(-c2nnc(SCC(=O)Nc3ccc(C(=O)/C=C/c4ccc(Cl)cc4)cc3)o2)cc1OC"
study_system = "UO-31 renal"
assay_metric = "growth"
observed_value = 72.3

[[record]]
compound = "Clc1ccc(OCc2nc(-c3ccccc3)n[nH]2)c(Cl)c1"
study_system = "UO-31 renal"
assay_metric = "growth"
observed_value = 77.1

[[record]]
compound = "CCc1cccc(-c2ccccc2)c1"
study_system = "UO-31 renal"
assay_metric = "growth"
observed_value = 87.8

[[record]]
compound = "CN1CCN(C(=O)/C=C/c2ccc([N+](=O)[O-])o2)CC1"
study_system = "UO-31 renal"
assay_metric = "growth"
observed_value = 79.3


Give growth for all compounds that follow.
1. Cc1ccc(=O)n(-c2ccc(Br)cc2F)c1
2. O=c1c2ccccc2sc2c(NCCCNCCO)nc3ccccc3c12

**Result**
1: 90.7; 2: 28.9

# return growth for each item in the list
1. COc1ccc(C2=NN(C(=O)COc3ccc(Cl)cc3)C(O)(c3cc(F)c(Cl)cc3Cl)C2)cc1 (stereo not given)
2. CCc1c(C)c2cc(-n3c(-c4ccc(OC)cc4)csc3=N)c(O)c(C)c2oc1=O
3. Cc1cccc(Cc2cnc(NC(=O)CCc3ccc(C)o3)s2)c1
4. OC(COc1ccccc1Cl)CN1CCN(c2ccc(Cl)cc2)CC1 (stereo not given)
5. C[C@]12O[C@H]1[C@H](O)c1c(cc(O)c3c1C(=O)c1cccc(O)c1-3)C2=O
6. C=C1C(=O)O[C@H]2[C@H]1CC/C(COC(=O)c1cc(OC)c(OC)c(OC)c1)=C\CC[C@@]1(C)O[C@@H]21
7. Cc1cc2nc(-c3c(N)ncc(C#N)c3-c3ccc(Cl)cc3)[nH]c2cc1C

**Result**
1. 74.7
2. 14.3
3. 34
4. 81.7
5. 91.1
6. -99
7. 77.8

###

test system: RPMI-8226 leukemia; assay: NCI-60 one-dose screen, 48 h (100 = growth as untreated, 0 = no growth, -100 = all killed); details: 10 µM unless noted
About 83,000 compounds went through this panel and 20% of them were active in at least one assay; those are over-represented in the sample as a whole.
I'd appreciate it if you could supply growth values for the items below.
One number for each entry, in %.

[[record]]
compound = "COc1ccc(Cn2cc(COc3ccc4c5ccnc(C)c5n(CCCc5ccccc5)c4c3)nn2)cc1"
observed_value = -3.72


Working through the 3 compounds below one at a time, give growth for each.
1. C=C1C(=O)O[C@H]2[C@H]1CC/C(COC(=O)c1ccc(Cl)nc1)=C\CC[C@@]1(C)O[C@@H]21
2. C[C@]12O[C@H]1[C@H](O)c1c(cc(O)c3c1C(=O)c1cccc(O)c1-3)C2=O
3. COc1ccccc1N1CCN(CCCOc2ccc(OCCCN3CCN(c4ccccc4OC)CC3)c(C(=O)c3cc(OC)c(OC)c(OC)c3)c2)CC1

**Result**
1: -30; 2: 93.6; 3: 155

// for each compound in input: emit growth
1. COc1ccc(Cl)cc1NC(=O)c1cc2c([nH]1)-c1nc(NC(=O)C(C)(C)C)sc1CC2
2. CCCCOc1nc2ccc(Cl)cc2cc1/C=C/C(=O)/C=C/c1ccc(OC)cc1
3. C/C(=N/NC(=O)Cn1c2ccccc2c2ccncc21)c1cccs1
4. O=C(NCCNc1nccc(-c2c(-c3cccc(O)c3)nc3sccn23)n1)c1cc(N2CCOCC2)cc(C(F)(F)F)c1
5. CCOc1ccccc1C(=O)N1CCN(c2cc(Cl)cc(Cl)c2)CC1
6. COc1ccc(C(=O)Cn2cnc3c(Nc4cc(C(=O)Nc5ccc(N6CCN(CCO)CC6)cc5)ccc4C)ncnc32)cc1
7. O=C(NCCNc1nccc(-c2c(-c3cccc(O)c3)nc3sccn23)n1)Nc1cccc(C(F)(F)F)c1

**Result**
1: 83.8; 2: 8.93; 3: 87.4; 4: 67; 5: 1.53; 6: 96.7; 7: -4.81
